Measured values drawn from ChEMBL document CHEMBL3885861 for this set.

Species on record: Rattus norvegicus
Protocol Details: Open TG-GATES - Regimen: Single
Assay type: toxicity, organism-based, Sprague-Dawley
Set-up: regimen Single, gender Male, age 6 weeks
Measurement Conditions: in vivo, po, 1000 mg/kg, 24 h, tissue Blood, route gavage, dose level High
Quantity Name: MCHC (%)
Supply the numeric figure in %, leaving out any unit text.

1) O=C(OC[C@H]1O[C@@H](OC(=O)c2cc(O)c(O)c(OC(=O)c3cc(O)c(O)c(O)c3)c2)[C@H](OC(=O)c2cc(O)c(O)c(OC(=O)c3cc(O)c(O)c(O)c3)c2)[C@@H](OC(=O)c2cc(O)c(O)c(OC(=O)c3cc(O)c(O)c(O)c3)c2)[C@@H]1OC(=O)c1cc(O)c(O)c(OC(=O)c2cc(O)c(O)c(O)c2)c1)c1cc(O)c(O)c(OC(=O)c2cc(O)c(O)c(O)c2)c1; 33.1

The record that follows has no MCHC shown yet.
Problem: Specify reported MCHC for the molecule shown: `CNC(=C[N+](=O)[O-])NCCSCc1ccc(CN(C)C)o1`
Result: 35.5

----------
Species on record: Rattus norvegicus
Protocol Details: Open TG-GATES - Regimen: Single
Format: toxicity, organism-based, Sprague-Dawley
Parameters: regimen Single, gender Male, age 6 weeks
Measurement Conditions: in vivo, po, 300 mg/kg, 24 h, tissue Plasma, route gavage, dose level Middle
Items are presented alongside their recorded TG.
Supply the numeric figure in mg/dL, leaving out any unit text.

Consider the following illustrative entries.
1) COC(=O)C1=C(C)NC(C)=C(C(=O)OC)C1c1ccccc1[N+](=O)[O-] [NIFEDIPINE]; 41.2
2) Cc1nnc2n1-c1ccc(Cl)cc1C(c1ccccc1Cl)=NC2 [TRIAZOLAM]; 88
3) O=C(OC[C@H]1O[C@@H](OC(=O)c2cc(O)c(O)c(OC(=O)c3cc(O)c(O)c(O)c3)c2)[C@H](OC(=O)c2cc(O)c(O)c(OC(=O)c3cc(O)c(O)c(O)c3)c2)[C@@H](OC(=O)c2cc(O)c(O)c(OC(=O)c3cc(O)c(O)c(O)c3)c2)[C@@H]1OC(=O)c1cc(O)c(O)c(OC(=O)c2cc(O)c(O)c(O)c2)c1)c1cc(O)c(O)c(OC(=O)c2cc(O)c(O)c(O)c2)c1 [TANNIC ACID]; 103.8
4) CN/C(=N/CCSCc1nc[nH]c1C)NC#N [CIMETIDINE]; 94

Problem: Specify reported TG for the compound shown: CNC(=C[N+](=O)[O-])NCCSCc1ccc(CN(C)C)o1 [RANITIDINE]
Result: 78.6

----------
Organism: Rattus norvegicus
Protocol Details: Open TG-GATES - Regimen: Daily Repeat
Type: toxicity, organism-based, Sprague-Dawley
Design: regimen Daily Repeat, gender Male, age 6 weeks
Measurement Conditions: in vivo, po, 300 mg/kg, 72 h, tissue Blood, route gavage, dose level Middle, time 3 day
Note to self: WBC under 100 x10_2/uL means 1.0, ties and anything higher get 0.0.

1) Cc1nnc2n1-c1ccc(Cl)cc1C(c1ccccc1Cl)=NC2; 0.0

Problem: Record `O=C(OC[C@H]1O[C@@H](OC(=O)c2cc(O)c(O)c(OC(=O)c3cc(O)c(O)c(O)c3)c2)[C@H](OC(=O)c2cc(O)c(O)c(OC(=O)c3cc(O)c(O)c(O)c3)c2)[C@@H](OC(=O)c2cc(O)c(O)c(OC(=O)c3cc(O)c(O)c(O)c3)c2)[C@@H]1OC(=O)c1cc(O)c(O)c(OC(=O)c2cc(O)c(O)c(O)c2)c1)c1cc(O)c(O)c(OC(=O)c2cc(O)c(O)c(O)c2)c1` : is its WBC strictly below 100 x10_2/uL?
Result: 1.0

Problem: Record `CN/C(=N/CCSCc1nc[nH]c1C)NC#N` : is its WBC strictly below 100 x10_2/uL?
Result: 0.0

Problem: Record `CNC(=C[N+](=O)[O-])NCCSCc1ccc(CN(C)C)o1` : is its WBC strictly below 100 x10_2/uL?
Result: 0.0

Problem: Record `COC(=O)C1=C(C)NC(C)=C(C(=O)OC)C1c1ccccc1[N+](=O)[O-]` : is its WBC strictly below 100 x10_2/uL?
Result: 0.0
